Target: VAPA (Rattus norvegicus)
Construct: pEGFP-N1-VAPA; 1-242 (Addgene #18874); host or cells: HEK293 cells; whole lysate at 1 mg/ml total protein overlaid on the peptide arrays
Sequence (Q9Z270 8-249): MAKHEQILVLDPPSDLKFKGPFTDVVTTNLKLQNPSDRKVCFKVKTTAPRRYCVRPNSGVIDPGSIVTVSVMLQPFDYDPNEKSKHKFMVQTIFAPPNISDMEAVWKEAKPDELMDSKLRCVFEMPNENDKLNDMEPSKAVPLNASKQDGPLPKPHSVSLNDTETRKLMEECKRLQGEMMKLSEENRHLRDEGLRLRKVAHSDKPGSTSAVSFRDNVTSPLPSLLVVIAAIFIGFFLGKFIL
Test: Peptide spot array (far western) of binding to VAPA, cell-free
Conditions: lysate of VAPA-transfected HEK293 cells (FIG. 11A)
readoutName: binding to VAPA in peptide spot array

SFISCAT [non-canonical FFAT motif of Kv2.1] = no binding
SFTSCAT [non-canonical FFAT motif of Kv2.2] = no binding
SIDSFTS [DP-2, seven amino acid declustering peptide from Kv2.2 CT] = no binding
